Taken from ChEMBL document CHEMBL1148352.

system-under-test: Adenosine receptor A3 (Homo sapiens)
Sequence (P0DMS8 whole entry): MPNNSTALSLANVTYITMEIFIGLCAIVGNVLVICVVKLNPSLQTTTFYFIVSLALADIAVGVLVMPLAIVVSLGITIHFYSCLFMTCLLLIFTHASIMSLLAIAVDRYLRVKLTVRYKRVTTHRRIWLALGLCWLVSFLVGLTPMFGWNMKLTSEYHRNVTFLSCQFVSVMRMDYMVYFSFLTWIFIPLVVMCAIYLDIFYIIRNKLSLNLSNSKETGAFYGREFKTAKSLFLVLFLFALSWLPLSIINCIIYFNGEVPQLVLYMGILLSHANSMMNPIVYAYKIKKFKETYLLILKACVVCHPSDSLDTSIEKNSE
assay-name: biochemical
Description: Binding affinity against human adenosine A3 receptor expressed in CHO cells by [125I]AB-MECA displacement.
observed-property: Ki (nM)

Sample answers from the record:
// COc1ccc(-n2nc3c(N)nc4c([N+](=O)[O-])cccc4n3c2=O)cc1 : Ki value = 47

// Nc1ccc(-n2nc3c(N)nc4ccccc4n3c2=O)cc1 : Ki value = 335

// CCOc1ccc(-n2nc3c(=O)[nH]c4ccccc4n3c2=O)cc1 : Ki value = 175

// Nc1cccc2c1nc(N)c1nn(-c3ccc(O)cc3)c(=O)n12 : Ki value = 176

// O=c1[nH]c2ccccc2n2c(=O)n(-c3ccc([N+](=O)[O-])cc3)nc12 : Ki value = 0.6

(I) COc1ccc(-n2nc3c(=O)[nH]c4c(N)cccc4n3c2=O)cc1
(II) CN(C)c1ccc(-n2nc3c(=O)[nH]c4ccccc4n3c2=O)cc1
INPUT: # compare Ki for I vs II ; return the one with the smaller value Pick one; state its label.
OUTPUT: I

(1) CCOc1ccc(-n2nc3c(N)nc4ccccc4n3c2=O)cc1
(2) O=c1[nH]c2ccccc2n2c(=O)n(-c3ccc(O)cc3)nc12
INPUT: # compare Ki for 1 vs 2 ; return the one with the smaller value Pick one; state its label.
OUTPUT: 2

====

Tested on: Adenosine receptor A2a (Bos taurus)
assay-name: Inhibition of [3H]-CGS- 21680 binding to adenosine A2a receptor of bovine striatal membranes
observed-property: I (%)

Sample answers from the record:
// CC(=O)Oc1ccc(-n2nc3c(=O)[nH]c4c([N+](=O)[O-])cccc4n3c2=O)cc1 : I value = 0

// O=c1[nH]c2c([N+](=O)[O-])cccc2n2c(=O)n(-c3ccc(O)cc3)nc12 : I value = 4

// O=c1[nH]c2c([N+](=O)[O-])cccc2n2c(=O)n(-c3ccc([N+](=O)[O-])cc3)nc12 : I value = 0

// COc1ccc(-n2nc3c(=O)[nH]c4c([N+](=O)[O-])cccc4n3c2=O)cc1 : I value = 14

// COc1ccc(-n2nc3c(N)nc4c([N+](=O)[O-])cccc4n3c2=O)cc1 : I value = 16.5

// COc1ccc(-n2nc3c(=O)[nH]c4c(N)cccc4n3c2=O)cc1 : I value = 23

// Nc1cccc2c1[nH]c(=O)c1nn(-c3ccc(O)cc3)c(=O)n12 : I value = 36

(1) Nc1nc2ccccc2n2c(=O)n(-c3ccc([N+](=O)[O-])cc3)nc12
(2) CN(C)c1ccc(-n2nc3c(=O)[nH]c4ccccc4n3c2=O)cc1
(3) Nc1nc2c([N+](=O)[O-])cccc2n2c(=O)n(-c3ccc([N+](=O)[O-])cc3)nc12
(4) O=c1[nH]c2ccccc2n2c(=O)n(-c3ccc([N+](=O)[O-])cc3)nc12
INPUT: Would you mind ranking these compounds by ascending I? State the ranking by listing the labels in the requested order.
OUTPUT: 2, 3, 4, 1

====

system-under-test: Adenosine receptor A1 (Bos taurus)
Sequence (whole entry): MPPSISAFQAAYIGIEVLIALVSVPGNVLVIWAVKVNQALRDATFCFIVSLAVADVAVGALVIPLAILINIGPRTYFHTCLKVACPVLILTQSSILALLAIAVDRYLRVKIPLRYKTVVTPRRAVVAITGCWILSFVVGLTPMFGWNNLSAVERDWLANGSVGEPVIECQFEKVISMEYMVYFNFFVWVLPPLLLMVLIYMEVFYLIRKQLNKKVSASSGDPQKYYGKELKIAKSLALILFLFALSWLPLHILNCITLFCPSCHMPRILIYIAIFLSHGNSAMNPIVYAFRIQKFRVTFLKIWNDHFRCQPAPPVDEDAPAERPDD
assay-name: Inhibition of [3H]CHA binding to adenosine A1 receptor of bovine brain membranes
Assay type: cell membranes
observed-property: I (%)

// O=c1[nH]c2c([N+](=O)[O-])cccc2n2c(=O)n(-c3ccc(O)cc3)nc12 : I value = 38

(a) COc1ccc(-n2nc3c(N)nc4c(N)cccc4n3c2=O)cc1
(b) O=c1[nH]c2ccccc2n2c(=O)n(-c3ccc([N+](=O)[O-])cc3)nc12
INPUT: Hi there! Just curious which has the higher I between a and b . Pick one; state its label.
OUTPUT: a
